# TEST NAME: KARI assay of purified S. exigua KARI and variants with NADH (Examples 6-9)
# Format: biochemical
MEASURED ATTRIBUTE: kcat NADH (s⁻¹)

{"MOLECULE": "Se1_KARI^13G6: S. exigua KARI variant G60V, I95A (protein, UniProt D0WGK0 1-342, looked up, variant G60V I95A) Ketol-acid reductoisomerase …: MSVKTKEKEMAVTILYEQDVDPKVIQGLKVGIIGYGSQGHAHALNLMDSGVDVRVGLREVSSSWKTAEEAGLKVTDMDTAAEEADVIMVLVPDEAQPKVYQEHIAAHLKAGNTLAFAHGFNIHYGYIVPPEDVNVIMCAPKGPGHIVRRQFTEGSGVPDLACVQQDATGNAWDIVLSYCWGVGGARSGIIKATFAEETEEDLFGEQAVLCGGLVELVKAGFETLTEAGYPPELAYFECYHEMKMIVDLMYESGIHFMNYSISNTAEYGEYYAGPKVINEQSREAMKEILKRIQDGSFAQEFVDDCNNGHKRLLEQREAINTHPIETTGAQIRSMFSWIKKED", "VALUE UNITS": "s⁻¹", "NUMERIC READOUT": 0.74}

The values you see were collected from patent US20140295512A1.
